Kindly state growth for each of the entries shown.
Test system: SK-MEL-2 melanoma
experiment-summary: NCI-60 one-dose screen, 48 h (100 = growth as untreated, 0 = no growth, -100 = all killed)
condition-description: 10 µM unless noted
The panel holds about 83,000 compounds, 20% with a hit somewhere; the sample as a whole holds those more often.
Give bare numbers, in %.

>>> print(df.to_string())
                                   compound  test_result
0  Cc1ccc(NC(=O)Nc2ccc(-c3cccnc3)cc2N2CCC(CO)CC2)cc1         33.7
1  CCOC(=O)C1=NN(c2ccc(Cl)cc2)C2C3N(c4ccc(Cl)cc4)N=C(C(=O)OCC)N3c3ccccc3N12 (stereo not given)          102
2  O=C(Nc1ccc(C2=NCCCN2)cc1)Nc1ccc(C2=NCCCN2)cc1           49

Hi, could you look up growth for each item in my list?
1. CC[N+](CC)(CCOCCOCC[N+](CC)(CC)Cc1ccc([N+](=O)[O-])cc1)Cc1ccc([N+](=O)[O-])cc1
2. CCN1CCN(c2cc(-c3cn[nH]c3-c3cc(C)cc(OC)c3)nc(-c3cccnc3)n2)CC1

Output:
1: 106; 2: 93.6

For each of the compounds below, note its growth.
1. S=C(c1ccccc1)N1CCN(c2cccc(Cl)c2)CC1
2. Clc1ccc(-n2cnc3c(Cl)ncnc32)cc1Cl

Output:
1. 100
2. 89.7

I need growth for every entry listed below, if you could help.
1. O=C(Nc1ccc(Cl)cc1)Nc1ccc(Oc2nncc3ccccc23)cc1
2. OC(c1cc(C(F)(F)F)nc2c(C(F)(F)F)cccc12)C1CCCCN1 (stereo not given)
3. CC/C(=C\c1ccc(N(C)C)cc1)c1ccncc1

Output:
1: 12.4; 2: 56.4; 3: 49.9
